Entries and their melting point values follow.

| Molecule | melting point |
| --- | --- |
| COc1ccc(Cn2cnc(=O)c3[nH]c(C(C)C)nc32)cc1OC1CCCC1 | 243 to 244 °C |
| O=S(c1ccccc1-c1ccccc1)C(F)(F)C(F)(F)C(F)(F)C(F)(F)C(F)(F)C(F)(F)C(F)(F)C(F)(F)F (stereo not given) | 62 to 63 °C |
| O=C1CCC(Nc2ncnc3c2ncn3C2OC(CO)C(O)C2O)N1 (stereo not given) | 198 to 200 °C |
| O=C1Nc2ccccc2N(C(=O)CCN2CCCC2)c2ccc(Cl)cc21 | 167 to 169 °C |
| Cn1nc(N)nc1NCCCOc1cccc(CN2CCCCC2)c1 | 94 to 95 °C |
| CCOCc1nc2c(N)nc3cc(OCc4nc5ccccc5s4)ccc3c2n1CC(C)(C)NS(C)(=O)=O | 258 to 259 °C |
| O=C(O)CCc1ccc(OCc2sc3ccccc3c2Cl)cc1 | 136 to 137 °C |
| CCOC(=O)C(C)(C)Oc1ccc(-c2ccc(CC(=O)Nc3cc(Cl)ccc3OC)cc2)cc1 | < 20 °C |
| Nc1nc(Cl)cc(OCC2(CO)CCC2)n1 | 125 to 127 °C |
| CC(C)n1cc(-c2nc(C(N)=O)c(N)nc2-c2ccc(Cl)cc2)ccc1=O | 246 °C |
| Cc1cc(=O)c(C(=O)O)c(C)n1C1CC(C)(C)NC(C)(C)C1 | 174 °C |
| O=Cc1ccc(C=Cc2ccccc2)cc1 | 112 to 113 °C |
| Cc1nc(CC(N)=O)no1 | 112 to 114 °C |
| O=S(=O)(Oc1ccc(-c2cc3ccccc3[nH]2)cc1O)c1ccccc1 | 158 °C |
| CS(=O)(=O)c1ccc(-c2[nH]c3ccc(Br)cc3c2-c2ccccc2)cc1 | 262 to 264 °C |
| CC(Cl)c1ccccc1S(N)(=O)=O (stereo not given) | 121 to 122 °C |
| CCc1nc2c(cnn2CC)c(NC2CCOCC2)c1CNC(=O)c1cc(C)cc(C(=O)NCc2ccc(OC)c(-c3cccc(CN4CCNC(C)C4)c3)c2)c1 (stereo not given) | 121 to 123 °C |
| C=CCNc1nc(NC(=O)NC(C)(C)C)c2cc([N+](=O)[O-])ccc2n1 | 200 to 201 °C |
| COc1cc2c(cc1Br)CC=C2CCNC(C)=O | 146 to 148 °C |
| COc1nc(Cl)cnc1N(C(=O)OCC(C)C)S(=O)(=O)c1ccccc1-c1ccc(O)cc1 | 175 to 177 °C |

* * *

Entries and their melting point values follow.
Measurement label: melting point

| Compound | Data value |
| --- | --- |
| CC(C)c1cccc(CCC(O)CC2CCCCC2)c1NC(=O)CC1c2ccccc2Oc2ccccc21 (stereo unspecified) | 148 °C |
| CCN(CC)CCNC(=NC#N)NCCCSc1nccc(NC(N)=NCC(F)(F)F)n1 | 76 to 80 °C |
| CCOC(=O)Oc1cc2occ(C(=O)O)c(=O)c2cc1OC(=O)OCC | 107 to 109 °C |
| CCCCc1c(-c2cnccn2)ssc1=S | 72 °C |
| O=C(NCCCCCCCNC(=O)c1ccc(OC(F)F)cc1)c1ccc(OC(F)F)cc1 | 138 to 139 °C |
| CC1(C)CC(=O)c2c(ncc3[nH]c4cc(Cl)ccc4c23)C1 | 257 to 259 °C |
| CC1(C)C(C(=O)O)C1C(OS(C)(=O)=O)C(Br)(Br)Br (stereo unspecified) | 168 °C |
| COC(=O)C=C(c1ccc(C#N)cc1)n1ccnc1 | 144 to 147 °C |
| Cc1nc(-c2ccc(Cl)cc2)c(CCC(=O)O)o1 | 211 to 212 °C |
| O=C1c2ccccc2C(=O)N1CCc1ccc(F)cc1 | 106 to 107 °C |
| O=C(O)c1cc(=O)cc(-c2ccccc2O)o1 | 213 to 215 °C |

* * *

Entries and their melting point values follow.

| Smiles record | melting point / °C |
| --- | --- |
| Cc1cc2c(-c3ccccc3)c(NC(=O)NCc3ccccc3N)n(C)c(=O)c2cc1C | 218 |
| CCCCCCCCCN1C(=O)c2ccc3c4cccc5cccc(c6ccc(c2c36)C1=O)c54 | 201 |

* * *

| Smiles record | melting point |
| --- | --- |
| CN=C(O)c1c(Cl)c(Cl)c(Sc2ccc(C)cc2)c(Cl)c1C(=O)O | 209 to 216 °C |
| C#CC[C@H]1CC[C@H](C(=O)O)CC1 | 84 to 86 °C |
| CCCc1ccc(O)c(NC(=O)C(=O)OCC)c1 | 155 to 160 °C |
| CCOC(=O)N1CCC(=C2c3ccc(F)cc3CCc3cccnc32)CC1 | 116 to 118 °C |
| CCOC(=O)NNc1n[nH]c2cc(Cl)ccc12 | 210 to 211 °C |
| CC1(C)C(=O)ON(Cc2cc(Cl)ccc2Cl)C1=O | 78 to 80 °C |

* * *

Entries and their melting point values follow.

| Compound | melting point |
| --- | --- |
| CCOC(CNC(=O)Nc1ccc(-n2cncn2)cc1)OCC | 139 to 140 °C |
| Cc1cccc(CO)c1CNc1cc(Br)cc2c1nc(C)n2C | 215 to 216 °C |
| Nc1nc(NC2CC2)c2sc(=O)n(C3OC(CO)C(O)C3O)c2n1 (stereo unspecified) | > 100 °C |
| COc1ccc(OC)c2c(O)c(C#N)cnc12 | 300 to 305 °C |
| CCc1ccc2c(c1)CC(NC(=O)C(F)(F)F)C2 (stereo unspecified) | 112 to 114 °C |
| Cc1ccc2c(c1)Oc1ccc([N+](=O)[O-])cc1C(=O)N2 | 264 to 266 °C |
| COc1cc(COc2ccc3nc(NC(=O)Oc4ccccc4)cn3n2)cc(OC)c1OC | 210 to 213 °C |
| Cc1cc(-c2ccc(Cl)cc2)nc(-n2cnc(-c3cccc(S(C)(=O)=O)c3)c2)n1 | 233 °C |
| O=C(O)CCCC1NCC2CCCN3CCCC1C23 (stereo unspecified) | 185 to 187 °C |
| CC(C)(C(=O)O)c1ccc2cc(O)ccc2c1 | 208 to 210 °C |
| CC(=O)c1ccc(OCCCN2CCC(c3noc4cc(F)ccc34)CC2)c(Br)c1 | 126 to 128 °C |

* * *

| Compound | melting point |
| --- | --- |
| COc1ccc(-c2cc(N3CCCCC3)c(C#N)c3c2-c2ccccc2C3)cc1 | 202 to 204 °C |
| Cc1oc(-c2ccccc2)nc1COc1ccc(C(=O)O)cc1 | 190 to 191 °C |
| CCOC(=O)C1CCCCCCC(=O)C(=O)N1 (stereo not given) | 129 to 130 °C |
| CCCCCCCCCCc1ccc2c(c1)C(=O)C(=COC(=O)c1ccccc1)CC2 | 64 to 66 °C |
| Cc1c(F)c(F)c(CNc2ccc(Cl)c(O)c2)c(F)c1F | 52 °C |
| CN1C(C(=O)Nc2ccccc2)=C(O)c2sc3ccccc3c2S1(=O)=O | 261 to 263 °C |
| CSc1cc2c(cc1C(F)(F)F)N(C(=O)Nc1cccc(C(=O)NCCN3CCCC3)c1)CC2 | 91 to 93 °C |
| CCOC(=O)COc1cc(-n2nc(C)n(C(F)F)c2=O)c(Cl)cc1Cl | 118 to 119 °C |
| CCCCc1nc2c(N)nc3ccc(OCc4ccccc4)cc3c2n1CCCCNS(C)(=O)=O | 178 to 182 °C |
| CC1(C)CCC(N)=CC1=O | 153 to 154 °C |
| C#CCNC1(c2ccccc2)c2ccccc2Oc2ccccc21 | 116 to 118 °C |
| CC(=O)NC(n1ccnc1)C(Cl)(Cl)CCl (stereo not given) | 151 to 154 °C |
| O=C1C(c2ccc(Cl)cc2)Sc2ccc3ccccc3c2N1CCCCl (stereo not given) | 110 to 112 °C |
| CCOC(=O)[C@H]1CC[C@@H](c2ccccc2)N1C(=O)CNC(=O)Nc1cccc(C)c1 (racemic) | 115 °C |
| CN(Cc1ccccc1)Cc1ccc(N)cc1 | 48 to 50 °C |
| CC(=O)CC(=O)N[C@H](CF)[C@H](O)c1ccc(S(C)(=O)=O)cc1 | 139 to 141 °C |
| CCCC(=O)NC1Cc2ccc(-c3ccc(=O)[nH]n3)cc2C1 (stereo not given) | 228 to 229 °C |
| COCC1=C(C(=O)OC)[C@H](c2ccc(F)c(F)c2)N(C(=O)NCCC(=O)O)C(=O)N1 | 52 to 55 °C |
| O=C(NCC(=O)N1c2ccccc2N(Cc2ccccc2)C(=O)[C@H]2CCC[C@H]21)c1ccccc1[N+](=O)[O-] (relative stereo) | 132 to 135 °C |
| CO[C@@H]1c2ccn3c(C)c(C)nc3c2N[C@H](c2ccccc2)[C@H]1OC=O | 152 to 153 °C |
| CCC(=C(c1ccccc1)c1ccc(C=Cc2noc(C)n2)cc1)c1ccccc1 | 158 to 159 °C |
| CCOC(=O)C(NC(=O)c1ccc(C)c(F)c1)C(=O)OCC | 102 to 103 °C |
| CCCCc1ccc(-c2ccc(CCc3cc(F)cc(F)c3)cc2)cc1 | 59 °C |
| COc1cc(CCN2CCN(c3nsc4ccccc34)CC2)c([N+](=O)[O-])cc1OC | 135 °C |
| CCNc1nc(C)c(-c2ccnc(Nc3cccc(S(=O)(=O)NCCO)c3)n2)s1 | 124 to 125 °C |
| C1=C(c2ccccc2)CCN(CCCCc2ccncc2)C1 | 89 to 90 °C |
| Cc1nc2c(cc1Br)c(=O)c(C(=O)NCc1ccc(Cl)cc1)cn2C | 266 to 268 °C |
| O=C1NCn2c3ccccc3c(=O)c3cccc1c32 | 250 to 255 °C |
| CN[C@@]1(C)CCN(c2c(-c3ccccc3)c(C)c(C#N)c3nc(C(=O)N(C)C)oc23)C1 | 172 to 174 °C |
| CCOC(=O)C(C)c1ccc2c(c1)sc1nc(=O)cc(-c3ccccc3)n12 (stereo not given) | 127 to 131 °C |
| CCCn1nc(-c2sc(C(=O)NC3CC3)nc2-c2ccccc2)ccc1=O | 146 to 147 °C |
| CS(=O)(=O)c1ccc(C2=C(c3ccccc3)C(=O)C2(Cl)Cl)cc1 | 124 to 125 °C |
| COC(=O)c1ccc(O)c(OC2CCCC2)c1 | 73 to 75 °C |
| Cc1[nH]c(C(=O)C(Cl)(Cl)Cl)c2c1-c1ccc(Cl)cc1C(c1ccccc1F)=NC2 | 222 to 225 °C |
| CCCSC1=NSc2cc(C)cnc2N1Cc1ccc(-c2ccccc2C(=O)O)cc1 | 237 to 239 °C |
| O=C1CCN(CC(c2ccccc2)c2ccccc2)CC1C1(O)CCN(CC(c2ccccc2)c2ccccc2)CC1 (stereo not given) | 125 to 127 °C |
| O=C(Cn1ccnc1)c1cccc(-c2ccccc2)c1 | 128 to 129 °C |
| COC(=O)Cc1cc(C(=O)c2ccc(F)cc2)ccc1O | 173 °C |
| CP1(=O)c2ccccc2CN1c1ccc(Oc2ccccc2)cc1 (stereo not given) | 176 to 177 °C |
| CCc1nc(C(=O)NCC(C=C(C)C(CC)[N+](=O)[O-])=NO)c[nH]1 (stereo not given) | 75 to 79 °C |
